Reference source for all entries: patent US12202835B2

pIC50: −log10 of the molar value.
pIC50 tested on c-MET kinase (Homo sapiens (Human), UniProt P08581): recorded values
Sequence (P08581 25-1390): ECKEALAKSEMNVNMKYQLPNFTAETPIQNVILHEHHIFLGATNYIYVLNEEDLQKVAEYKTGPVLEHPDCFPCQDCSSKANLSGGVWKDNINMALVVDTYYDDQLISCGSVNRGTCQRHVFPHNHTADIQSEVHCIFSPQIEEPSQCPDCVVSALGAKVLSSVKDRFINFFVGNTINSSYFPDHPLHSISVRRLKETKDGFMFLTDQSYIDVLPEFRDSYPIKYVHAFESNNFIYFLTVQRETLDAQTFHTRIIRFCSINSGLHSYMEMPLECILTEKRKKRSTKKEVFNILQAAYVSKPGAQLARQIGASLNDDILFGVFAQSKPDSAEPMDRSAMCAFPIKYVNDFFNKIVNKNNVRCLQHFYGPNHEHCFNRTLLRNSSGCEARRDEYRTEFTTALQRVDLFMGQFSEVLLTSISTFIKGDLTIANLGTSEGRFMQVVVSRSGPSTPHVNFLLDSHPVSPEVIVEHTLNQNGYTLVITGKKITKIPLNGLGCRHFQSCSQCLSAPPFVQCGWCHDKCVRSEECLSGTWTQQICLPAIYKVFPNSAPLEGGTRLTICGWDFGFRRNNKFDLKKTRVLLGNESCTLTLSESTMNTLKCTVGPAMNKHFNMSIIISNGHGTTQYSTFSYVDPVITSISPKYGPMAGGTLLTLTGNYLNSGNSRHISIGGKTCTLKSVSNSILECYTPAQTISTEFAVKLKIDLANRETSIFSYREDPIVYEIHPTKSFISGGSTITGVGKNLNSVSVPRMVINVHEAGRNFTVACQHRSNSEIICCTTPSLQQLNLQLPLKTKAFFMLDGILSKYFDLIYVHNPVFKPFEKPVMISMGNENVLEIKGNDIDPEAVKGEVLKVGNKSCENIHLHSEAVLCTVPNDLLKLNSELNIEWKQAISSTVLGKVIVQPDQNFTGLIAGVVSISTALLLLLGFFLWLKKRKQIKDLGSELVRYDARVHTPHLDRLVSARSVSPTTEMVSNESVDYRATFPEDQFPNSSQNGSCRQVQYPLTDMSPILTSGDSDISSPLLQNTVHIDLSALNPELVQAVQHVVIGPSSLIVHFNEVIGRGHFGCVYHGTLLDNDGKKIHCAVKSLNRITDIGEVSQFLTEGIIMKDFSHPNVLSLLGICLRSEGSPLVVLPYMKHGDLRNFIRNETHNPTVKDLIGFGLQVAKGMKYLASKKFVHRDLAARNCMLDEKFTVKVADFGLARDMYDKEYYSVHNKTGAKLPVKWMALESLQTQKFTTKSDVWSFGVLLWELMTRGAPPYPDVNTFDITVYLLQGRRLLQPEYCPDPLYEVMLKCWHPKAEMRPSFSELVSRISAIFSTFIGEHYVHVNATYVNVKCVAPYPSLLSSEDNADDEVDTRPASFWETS
ASSAY_ENDPOINT: pIC50

1. O=C(Nc1ccc(Oc2ccnc3ccc4c(c23)OCCO4)cc1F)c1cccn(-c2ccc(F)cc2)c1=O | 6.30 to 7.30
2. Cn1cc(C(=O)Nc2ccc(Oc3ccnc4cc(OCC(C)(C)O)c5c(c34)OCCO5)cc2Cl)c(=O)n(-c2ccc(F)cc2)c1=O | ≥ 7.30
3. COc1cc2nccc(Oc3ccc(NC(=O)c4cn(C(C)C)c(=O)n(-c5cccc(F)c5)c4=O)cc3F)c2c2c1OCCO2 | ≥ 7.30
4. CCOc1cc2nccc(Oc3ccc(NC(=O)c4cn(C)c(=O)n(-c5ccc(F)cc5)c4=O)c(Cl)c3)c2c2c1OCCO2 | ≥ 7.30
5. CCOc1cc2nccc(Oc3ccc(NC(=O)c4c(OCC)ccn(-c5ccc(F)cc5)c4=O)c(Cl)c3)c2c2c1OCCO2 | ≥ 7.30
6. COCCOc1cc2nccc(Oc3ccc(NC(=O)c4cn(C)c(=O)n(-c5ccc(F)cc5)c4=O)c(F)c3)c2c2c1OCCO2 | ≥ 7.30
7. CCOc1ccn(-c2ccc(F)cc2)c(=O)c1C(=O)Nc1ccc(Oc2ccnc3cc(OCCCN4CCN(C)CC4)c4c(c23)OCCO4)c(F)c1 | ≥ 7.30
8. CC(C)n1cc(C(=O)Nc2ccc(Oc3ccnc4cc(OCCCCCCN(C)C)c5c(c34)OCCO5)c(F)c2)c(=O)n(-c2ccc(F)cc2)c1=O | 6.30 to 7.30
9. CCOc1ccn(-c2ccc(F)cc2)c(=O)c1C(=O)Nc1ccc(Oc2ccnc3cc(OCCCC#N)c4c(c23)OCCO4)c(F)c1 | ≥ 7.30

---

# pIC50 values compiled below
System: Ba/F3 LMNA-NTRK1-G595R cells
Assay: Assay for inhibiting the proliferation of Ba/F3 LMNA-NTRK1-G595R cells (CCK-8)
Type: cell-based
Conditions: Mus musculus, BaF3
Procedure: In particular, the method of the assay of small molecular compounds for inhibiting cell proliferation is as follows: • 1. […] The supernatant was discarded; 5 mL of complete medium was added and pipetted evenly; 10 μL of cell suspension was taken out, mixed well with 10 μL of 0.4% trypan blue, and counted under a cell counter; the proportion of living cells was ensured to be above 90%; • 3. […]
pIC50: −log10 of the molar value.
ASSAY_ENDPOINT: pIC50

1) CCn1cc(C(=O)Nc2ccc(Oc3ccnc4cc(OC)c5c(c34)OCCO5)cc2F)c(=O)n(-c2ccc(F)cc2)c1=O [Example 154] | 6.70 to 7.30
2) CCn1cc(C(=O)Nc2ccc(Oc3ccnc4cc(OC)c5c(c34)OCCO5)cc2)c(=O)n(-c2ccc(F)cc2)c1=O [Example 146] | 6.00 to 6.70
3) CC(C)n1cc(C(=O)Nc2ccc(Oc3ccnc4cc(OCC(C)(C)O)c5c(c34)OCCO5)c(F)c2)c(=O)n(-c2ccc(F)cc2)c1=O [Example 122] | 6.00 to 6.70
4) CCn1cc(C(=O)Nc2ccc(Oc3ccnc4cc(OCC(C)(C)O)c5c(c34)OCCO5)cc2)c(=O)n(-c2ccc(F)cc2)c1=O [Example 150] | < 6.00
5) CCn1cc(C(=O)Nc2ccc(Oc3ccnc4cc(OCCCN5CCCCC5)c5c(c34)OCCO5)c(F)c2)c(=O)n(-c2ccc(F)cc2)c1=O [Example 41] | 6.70 to 7.30

---

IC50 tested on TRKA kinase (Homo sapiens (Human)): recorded values
Sequence (P04629 33-796): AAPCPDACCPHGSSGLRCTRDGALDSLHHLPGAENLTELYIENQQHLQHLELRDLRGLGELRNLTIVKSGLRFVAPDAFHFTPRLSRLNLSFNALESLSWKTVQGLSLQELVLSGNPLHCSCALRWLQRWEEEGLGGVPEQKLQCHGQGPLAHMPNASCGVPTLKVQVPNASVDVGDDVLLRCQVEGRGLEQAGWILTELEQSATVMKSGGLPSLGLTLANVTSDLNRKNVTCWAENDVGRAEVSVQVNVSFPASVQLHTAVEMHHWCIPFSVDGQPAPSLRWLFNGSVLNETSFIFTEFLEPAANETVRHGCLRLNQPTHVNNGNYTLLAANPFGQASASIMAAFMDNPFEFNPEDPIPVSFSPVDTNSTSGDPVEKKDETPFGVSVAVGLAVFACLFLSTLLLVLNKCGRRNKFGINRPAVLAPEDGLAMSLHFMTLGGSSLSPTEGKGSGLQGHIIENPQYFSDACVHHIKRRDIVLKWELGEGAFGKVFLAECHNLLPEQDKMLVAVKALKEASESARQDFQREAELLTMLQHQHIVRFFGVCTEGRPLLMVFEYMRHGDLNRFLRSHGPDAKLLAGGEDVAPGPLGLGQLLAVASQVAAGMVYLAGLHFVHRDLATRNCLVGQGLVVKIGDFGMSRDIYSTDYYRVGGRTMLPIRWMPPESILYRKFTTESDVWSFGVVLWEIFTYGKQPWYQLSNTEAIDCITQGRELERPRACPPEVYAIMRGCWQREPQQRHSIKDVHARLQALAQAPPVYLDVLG
ASSAY_ENDPOINT: IC50

1. CCOc1cn(-c2ccc(F)cc2C)nc1C(=O)Nc1ccc(Oc2ccnc3cc(OC)c4c(c23)OCCO4)c(F)c1 [Example 25] | 50 to 500 nM
2. CCOc1ccn(-c2ccc(F)cc2)c(=O)c1C(=O)Nc1ccc(Oc2ccnc3cc(OCCCOC)c4c(c23)OCCO4)c(F)c1 [Example 55] | < 50 nM
3. CCOc1ccn(-c2ccc(F)cc2)c(=O)c1C(=O)Nc1ccc(Oc2ccnc3cc(OC)c4c(c23)OCCO4)c(F)c1 [Example 19] | < 50 nM
4. CCn1cc(C(=O)Nc2ccc(Oc3ccnc4cc(OCCCN5CCCCC5)c5c(c34)OCCO5)c(F)c2)c(=O)n(-c2ccc(F)cc2)c1=O [Example 41] | < 50 nM
